Target: PDE5 (Homo sapiens, UniProt O76074)
For each of the compounds below, state its IC50.

IN: Entry CCOC(=O)c1sc(Nc2nc(N3CCC(O)CC3)cc(N3CCC(O)CC3)n2)nc1C [Example F2] has what IC50?
OUT: 720 nM

Others:
IN: Entry COc1ccc([C@]2(C#N)CC[C@@H](C(=O)O)CC2)cc1OC1CCCC1 [cilomilast, reference compound] has what IC50?
OUT: > 10000 nM

---

For each of the molecules below, state its IC50.
Molecular target: PDE7 (Homo sapiens, UniProt Q13946)
Construct: endogenous in cells; host or cells: Hut78 cells (crude lysate)
Sequence (Q13946 whole entry): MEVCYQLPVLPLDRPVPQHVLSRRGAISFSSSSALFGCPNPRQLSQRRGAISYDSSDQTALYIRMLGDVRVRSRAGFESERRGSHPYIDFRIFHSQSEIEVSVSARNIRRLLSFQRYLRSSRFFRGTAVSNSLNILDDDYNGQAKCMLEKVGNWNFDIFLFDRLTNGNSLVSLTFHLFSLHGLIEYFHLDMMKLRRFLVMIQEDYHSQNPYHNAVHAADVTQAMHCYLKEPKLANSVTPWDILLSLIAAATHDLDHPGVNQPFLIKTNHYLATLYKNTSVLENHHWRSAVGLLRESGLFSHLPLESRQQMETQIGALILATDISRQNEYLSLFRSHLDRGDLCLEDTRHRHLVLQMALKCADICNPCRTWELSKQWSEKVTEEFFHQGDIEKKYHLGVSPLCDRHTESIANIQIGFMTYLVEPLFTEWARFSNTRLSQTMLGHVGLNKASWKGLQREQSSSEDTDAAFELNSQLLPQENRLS
Assay: SPA assay for cAMP, PDE7 in Hut78 cell lysate treated with Zardaverine
Format: biochemical
Conditions: Hut78 cell lysate, SPA

Need IC50 for each of these molecules.
1. COc1ccc(C2CNC(=O)C2)cc1OC1CCCC1 (stereo not shown) [rolipram, reference compound]
2. COc1ccc([C@]2(C#N)CC[C@@H](C(=O)O)CC2)cc1OC1CCCC1 [cilomilast, reference compound]
3. CCOC(=O)c1sc(Nc2nc(N3CCC(O)CC3)cc(N3CCC(O)CC3)n2)nc1C
4. CCOC(=O)c1sc(Nc2nc(NCc3cc(OC)c(OC)c(OC)c3)cc(N3CCC(N(C)C)CC3)n2)nc1C

OUT:
> 10 µM
> 50 µM
0.06 µM
0.03 µM

---

For each of the compounds below, state its IC50.
Test system: PDE4
Assay: SPA assay, PDE4 (rat kidney)
Format: biochemical
Numbers only, in µM.

Reference set, count: 2
IN: Entry CCOC(=O)c1sc(Nc2nc(NCc3cc(OC)c(OC)c(OC)c3)cc(N3CCC(N(C)C)CC3)n2)nc1C has what IC50?
OUT: 3

IN: How about this compound: COc1ccc([C@]2(C#N)CC[C@@H](C(=O)O)CC2)cc1OC1CCCC1 [cilomilast, reference compound]
OUT: 0.03

Others:
IN: Entry CCOC(=O)c1sc(Nc2nc(N3CCC(O)CC3)cc(N3CCC(O)CC3)n2)nc1C has what IC50?
OUT: 3.2

---

Target: PDE6 (Bos taurus, UniProt P11541+P23439)
Construct: PDE6, bovine retina
Sequence (P11541 2-856 limits assumed): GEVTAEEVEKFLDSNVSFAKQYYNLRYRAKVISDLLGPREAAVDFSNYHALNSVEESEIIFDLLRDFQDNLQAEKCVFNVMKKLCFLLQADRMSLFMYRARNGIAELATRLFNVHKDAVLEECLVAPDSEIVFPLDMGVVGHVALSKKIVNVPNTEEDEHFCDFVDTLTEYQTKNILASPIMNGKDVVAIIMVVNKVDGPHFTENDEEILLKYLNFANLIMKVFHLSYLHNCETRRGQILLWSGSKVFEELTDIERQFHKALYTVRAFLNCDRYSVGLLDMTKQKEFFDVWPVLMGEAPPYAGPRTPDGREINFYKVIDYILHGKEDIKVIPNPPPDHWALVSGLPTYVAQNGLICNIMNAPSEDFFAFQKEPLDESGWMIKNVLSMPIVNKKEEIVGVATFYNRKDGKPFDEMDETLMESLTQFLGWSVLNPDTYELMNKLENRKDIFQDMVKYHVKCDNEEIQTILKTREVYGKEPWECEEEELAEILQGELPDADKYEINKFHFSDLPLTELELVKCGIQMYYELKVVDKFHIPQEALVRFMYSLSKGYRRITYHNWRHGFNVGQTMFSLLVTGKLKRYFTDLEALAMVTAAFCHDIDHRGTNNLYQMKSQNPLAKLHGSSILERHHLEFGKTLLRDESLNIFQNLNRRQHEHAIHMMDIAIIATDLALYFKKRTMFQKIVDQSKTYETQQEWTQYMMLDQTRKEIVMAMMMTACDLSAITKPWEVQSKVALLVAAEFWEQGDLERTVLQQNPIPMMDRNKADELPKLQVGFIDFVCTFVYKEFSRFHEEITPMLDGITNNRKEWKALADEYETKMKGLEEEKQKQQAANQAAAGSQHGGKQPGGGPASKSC
Sequence (P23439 2-850 limits assumed): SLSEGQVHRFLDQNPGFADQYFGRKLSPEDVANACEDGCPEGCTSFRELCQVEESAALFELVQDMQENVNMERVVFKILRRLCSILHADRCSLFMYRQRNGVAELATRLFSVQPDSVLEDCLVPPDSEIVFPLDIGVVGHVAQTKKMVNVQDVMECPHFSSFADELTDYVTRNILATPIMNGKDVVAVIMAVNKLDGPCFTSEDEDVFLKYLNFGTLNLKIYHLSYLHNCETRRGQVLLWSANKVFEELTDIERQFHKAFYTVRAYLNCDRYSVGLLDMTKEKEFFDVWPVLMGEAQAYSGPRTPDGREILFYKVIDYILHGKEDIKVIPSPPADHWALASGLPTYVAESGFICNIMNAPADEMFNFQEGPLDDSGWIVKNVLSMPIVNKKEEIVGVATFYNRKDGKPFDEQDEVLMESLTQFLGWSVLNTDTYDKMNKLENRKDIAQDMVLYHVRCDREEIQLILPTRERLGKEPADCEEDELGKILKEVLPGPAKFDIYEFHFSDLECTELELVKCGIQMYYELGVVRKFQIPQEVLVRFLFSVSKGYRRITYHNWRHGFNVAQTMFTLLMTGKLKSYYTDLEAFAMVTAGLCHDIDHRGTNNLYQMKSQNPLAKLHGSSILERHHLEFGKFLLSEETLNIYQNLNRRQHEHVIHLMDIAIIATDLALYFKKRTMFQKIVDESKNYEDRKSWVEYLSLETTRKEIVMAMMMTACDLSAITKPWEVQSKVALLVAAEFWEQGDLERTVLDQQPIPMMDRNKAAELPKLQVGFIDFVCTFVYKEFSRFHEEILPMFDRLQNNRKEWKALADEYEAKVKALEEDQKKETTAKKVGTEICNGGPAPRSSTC
Assay: SPA assay, PDE6 (bovine retina, 3H-cyclic GMP substrate)
quantity: IC50 (µM)
Answers are plain numbers, in µM.

IN: Entry CCOC(=O)c1sc(Nc2nc(NCc3cc(OC)c(OC)c(OC)c3)cc(N3CCC(N(C)C)CC3)n2)nc1C has what IC50?
OUT: 7.5

Attention now shifts to the item below.
IN: Entry CCOC(=O)c1sc(Nc2nc(N3CCC(O)CC3)cc(N3CCC(O)CC3)n2)nc1C has what IC50?
OUT: 0.73
